test: Biodistribution of 177Lu-labeled αMSH analogues in mice bearing B16F10 mouse melanoma; assay type: in vivo, C57BL/6J mice; conditions: mouse, fat, iv, total radioactivity; 1 h p.i., C57BL/6J mice, B16F10 melanoma; read-out: Biodistribution, Fat
Reported tissue uptake at 1 h values are given for each entry in this list.
Write the value in %ID/g as a bare number.

compound="CCCC[C@H](NC(=O)CN1CCC(NC(=O)[C@H](CCCCNC(=O)CN2CCN(CC(=O)O)CCN(CC(=O)O)CCN(CC(=O)O)CC2)NC(=O)[C@H](CCC(=O)O)NC(=O)CCCc2ccc(I)cc2)CC1)C(=O)N[C@H]1CC(=O)NCCCC[C@@H](C(N)=O)N(C)C(=O)[C@H](Cc2c[nH]c3ccccc23)NC(=O)[C@H](CCCNC(=N)N)N(C)C(=O)[C@@H](Cc2ccccc2)NC(=O)[C@H](Cc2c[nH]cn2)NC1=O [^177Lu-labeled CCZ01118, metal not drawn]" reported_endpoint="tissue uptake at 1 h" reported=0.43
compound="CCCC[C@H](NC(=O)CN1CCC(NC(=O)CN2CCN(CC(=O)O)CCN(CC(=O)O)CCN(CC(=O)O)CC2)CC1)C(=O)N[C@H]1CC(=O)NCCCC[C@@H](C(N)=O)N(C)C(=O)[C@H](Cc2c[nH]c3ccccc23)N(C)C(=O)[C@H](CCCNC(=N)N)N(C)C(=O)[C@@H](Cc2ccccc2)NC(=O)[C@H](Cc2c[nH]cn2)N(C)C1=O [^177Lu-labeled CCZ01099, metal not drawn]" reported_endpoint="tissue uptake at 1 h" reported=0.06
compound="CCCC[C@H](NC(=O)CN1CCC(NC(=O)CN2CCN(CC(=O)O)CCN(CC(=O)O)CCN(CC(=O)O)CC2)CC1)C(=O)N[C@H]1CC(=O)NCCCC[C@@H](C(N)=O)N(C)C(=O)[C@H](Cc2c[nH]c3ccccc23)NC(=O)[C@H](CCCNC(=N)N)N(C)C(=O)[C@@H](Cc2ccccc2)NC(=O)[C@H](Cc2c[nH]cn2)NC1=O [^177Lu-labeled CCZ01106, metal not drawn]" reported_endpoint="tissue uptake at 1 h" reported=0.05

Alright, here's another compound for you.
// query tissue uptake at 1 h value for entry CCCC[C@H](NC(=O)CN1CCC(NC(=O)[C@H](CCCCNC(=O)CN2CCN(CC(=O)O)CCN(CC(=O)O)CCN(CC(=O)O)CC2)NC(=O)[C@H](CCC(=O)O)NC(=O)CCCc2ccc(I)cc2)CC1)C(=O)N[C@H]1CC(=O)NCCCC[C@@H](C(N)=O)NC(=O)[C@H](Cc2c[nH]c3ccccc23)NC(=O)[C@H](CCCNC(=N)N)NC(=O)[C@@H](Cc2ccccc2)NC(=O)[C@H](Cc2c[nH]cn2)NC1=O [^177Lu-labeled CCZ01082, metal not drawn]
0.61
